- Test system: SK-OV-3 ovarian
- method.description: NCI tumour cell line growth inhibition, 48 h; in the data active means GI50 below about 0.43 µM; inactive means the rest
Outcome codes: label 1 for active, label 0 for inactive

{"compound": "O=C(Nc1cccc(-n2cc(-c3ccncc3)c(-c3cc(O)cc(Cl)c3)n2)c1)c1cc(C(F)(F)F)cc(C(F)(F)F)c1", "assigned.label": "label 0"}
{"compound": "N#CC1=C(/N=C/c2ccccc2)Oc2c(ccc3ccccc23)C1c1ccccc1 (stereo not drawn)", "assigned.label": "label 0"}
{"compound": "C[C@]12CC[C@@H]3c4cc(OC(F)F)c(OS(N)(=O)=O)cc4CC[C@H]3[C@@H]1CC[C@@H]2O", "assigned.label": "label 0"}
{"compound": "COc1cc(/C=C/C(=O)c2cccc(-n3cc(-c4ccc(Cl)cc4)[nH]c3=O)c2)cc(OC)c1OC", "assigned.label": "label 0"}
{"compound": "Cc1cc(C)nc(SC2=C(Nc3cc(Cl)ccc3O)C(=O)N(Cc3ccccc3)C2=O)n1", "assigned.label": "label 0"}
{"compound": "COC1=C(OC)C(=O)C(SC/C=C(\\C)CCCC(C)CCCC(C)CCCC(C)C)=CC1=O (stereo not drawn)", "assigned.label": "label 0"}
{"compound": "CN(CCNCc1ccccn1)CCNCc1ccccn1", "assigned.label": "label 0"}
{"compound": "Cc1cccc2c3c(sc12)C(c1ccc(Cl)cc1)C(C#N)=C(N)O3 (stereo not drawn)", "assigned.label": "label 0"}
{"compound": "N#CCN1CCn2c1nsc2=S", "assigned.label": "label 0"}
{"compound": "COc1cc2c(cc1OCCCCN1CCN(C(=S)SCCC(C#N)(c3ccccc3)c3ccccc3)CC1)N=C[C@@H]1CCCN1C2=O", "assigned.label": "label 0"}
{"compound": "C[CH2][Sn]([CH2]C)([O]C(=O)c1ccccc1OC)[O][Sn]([CH2]C)([CH2]C)[O]C(=O)c1ccccc1OC", "assigned.label": "label 0"}
{"compound": "O=C(/C=C/c1cccc(O)c1)c1cccc(-n2cc(-c3ccccc3)[nH]c2=O)c1", "assigned.label": "label 0"}
{"compound": "Oc1cccc2ccc(N/N=C/c3cc(CN4CCOCC4)c(O)c4ncccc34)nc12", "assigned.label": "label 1"}

Just for reference, PubChem BioAssay (NCI) is where these values come from.
